Values were extracted from patent US20200407449A1.

Target: T1, hVISTA-Fc (R&D systems. Cat. No. 7126-B7) (human, UniProt Q9H7M9 33-194)
T1 construct: Bought antigen; also called human VISTA-Fc; VISTA-FC Human
T1 sequence: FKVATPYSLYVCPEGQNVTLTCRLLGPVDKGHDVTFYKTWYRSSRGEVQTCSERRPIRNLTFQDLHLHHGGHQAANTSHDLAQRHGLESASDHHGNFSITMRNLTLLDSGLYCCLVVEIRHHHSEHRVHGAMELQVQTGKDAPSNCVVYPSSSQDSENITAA
Experiment: Octet (BLI), antibody as ligand on biosensor, VISTA-Fc as analyte
Quick reference: log10 of koff of the listed items.
Response schema: value (number) is log10 of koff in units of s⁻¹.

Sample answers from the record:
binder="PMC-309.3.3 (antibody, V domains shown) VH: QMQLVQSGAEVKKPGSSVKVSCKASGGSSSNYAISWVRQAPGQGLEWMGGIIPIFGTTSYAQKFQGRVTITADGSMSTAYMELSSLRSEDTAVYYCAKGAIEPWPFYFDNWGQGTLVTVSS VL: QLVLTQPRSVSGSPGQSVTISCTGTNSDVGAYNYLSWYQQLPGRAPKVIIYDVNKRPSGVPDRFSGSRSGKTASLTISGLQAEDEADYYCAAWDDNLYGLVFGGGTKLTVLG" test_value=-4.02
binder="anti-VISTA antibody 1B8 (IgG form) (antibody, V domains shown, also called Anti VISTA 3.0(1B8); anti-VISTA mAb 1B8) VH: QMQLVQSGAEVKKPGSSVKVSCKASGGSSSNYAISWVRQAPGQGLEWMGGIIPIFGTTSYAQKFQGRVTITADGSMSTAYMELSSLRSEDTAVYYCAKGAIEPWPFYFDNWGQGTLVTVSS VL: QLVLTQPRSVSGSPGQSVTISCTGTNSDVGAYNYLSWYQQLPGRAPKVIIYDVNKRPSGVPDRFSGSRSGKTASLTISGLQAEDEADYYCAAWDDSLNGLVFGGGTKLTVLG" test_value=-2.68
binder="PMC-309.3.4w (antibody, V domains shown, Heavy chain G-H (framework substituted), wt light chain) VH: QVQLVQSGAEVKKPGSSVKVSCKASGGSSSNYAISWVRQAPGQGLEWMGGIIPIFGTTSYAQKFQGRVTITADKSTSTAYMELSSLRSEDTAVYYCAKGAIEPWPFYFDNWGQGTLVTVSS VL: QLVLTQPRSVSGSPGQSVTISCTGTNSDVGAYNYLSWYQQLPGRAPKVIIYDVNKRPSGVPDRFSGSRSGKTASLTISGLQAEDEADYYCAAWDDNLYGLVFGGGTKLTVLG" test_value=-4.03
binder="Anti VISTA_V3_2 (IgG form) (antibody, V domains shown) VH: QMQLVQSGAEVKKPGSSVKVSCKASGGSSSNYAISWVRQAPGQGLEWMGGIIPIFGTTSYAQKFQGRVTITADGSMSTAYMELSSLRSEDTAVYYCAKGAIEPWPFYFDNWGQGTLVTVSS VL: QLVLTQPRSVSGSPGQSVTISCTGTNSDVGAYNYLSWYQQLPGRAPKVIIYDVNKRPSGVPDRFSGSRSGKTASLTISGLQAEDEADYYCAAWDDSLNDLVFGGGTKLTVLG" test_value=-2.72
binder="Anti VISTA_V3_1 (IgG form) (antibody, V domains shown) VH: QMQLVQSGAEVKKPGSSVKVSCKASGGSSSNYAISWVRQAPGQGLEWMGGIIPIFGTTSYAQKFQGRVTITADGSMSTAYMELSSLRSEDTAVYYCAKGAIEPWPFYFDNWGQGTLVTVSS VL: QLVLTQPRSVSGSPGQSVTISCTGTNSDVGAYNYLSWYQQLPGRAPKVIIYDVNKRPSGVPDRFSGSRSGKTASLTISGLQAEDEADYYCAAWDDSLYGLVFGGGTKLTVLG" test_value=-3.82

Lab note: next binder to report on.
Provide measured log10 of koff value, entry: PMC-309.3.4SA (antibody, V domains shown, light chain SA; also called PMC-309.3.45A) VH: QVQLVQSGAEVKKPGSSVKVSCKASGGSSSNYAISWVRQAPGQGLEWMGGIIPIFGTTSYAQKFQGRVTITADKSTSTAYMELSSLRSEDTAVYYCAKGAIEPWPFYFDNWGQGTLVTVSS VL: QSALTQPRSVSGSPGQSVTISCTGTNSDVGAYNYLSWYQQLPGRAPKVIIYDVNKRPSGVPDRFSGSRSGKTASLTISGLQAEDEADYYCAAWDDNLYGLVFGGGTKLTVL
-3.87
